- TESTED SYSTEM: CBL-B (Homo sapiens, UniProt Q13191)
- Construct: endogenous in cells; host or cells: Jurkat HiBit-IL2 reporter cells, C-CBL knocked out by CRISPR
- Sequence (Q13191 whole entry): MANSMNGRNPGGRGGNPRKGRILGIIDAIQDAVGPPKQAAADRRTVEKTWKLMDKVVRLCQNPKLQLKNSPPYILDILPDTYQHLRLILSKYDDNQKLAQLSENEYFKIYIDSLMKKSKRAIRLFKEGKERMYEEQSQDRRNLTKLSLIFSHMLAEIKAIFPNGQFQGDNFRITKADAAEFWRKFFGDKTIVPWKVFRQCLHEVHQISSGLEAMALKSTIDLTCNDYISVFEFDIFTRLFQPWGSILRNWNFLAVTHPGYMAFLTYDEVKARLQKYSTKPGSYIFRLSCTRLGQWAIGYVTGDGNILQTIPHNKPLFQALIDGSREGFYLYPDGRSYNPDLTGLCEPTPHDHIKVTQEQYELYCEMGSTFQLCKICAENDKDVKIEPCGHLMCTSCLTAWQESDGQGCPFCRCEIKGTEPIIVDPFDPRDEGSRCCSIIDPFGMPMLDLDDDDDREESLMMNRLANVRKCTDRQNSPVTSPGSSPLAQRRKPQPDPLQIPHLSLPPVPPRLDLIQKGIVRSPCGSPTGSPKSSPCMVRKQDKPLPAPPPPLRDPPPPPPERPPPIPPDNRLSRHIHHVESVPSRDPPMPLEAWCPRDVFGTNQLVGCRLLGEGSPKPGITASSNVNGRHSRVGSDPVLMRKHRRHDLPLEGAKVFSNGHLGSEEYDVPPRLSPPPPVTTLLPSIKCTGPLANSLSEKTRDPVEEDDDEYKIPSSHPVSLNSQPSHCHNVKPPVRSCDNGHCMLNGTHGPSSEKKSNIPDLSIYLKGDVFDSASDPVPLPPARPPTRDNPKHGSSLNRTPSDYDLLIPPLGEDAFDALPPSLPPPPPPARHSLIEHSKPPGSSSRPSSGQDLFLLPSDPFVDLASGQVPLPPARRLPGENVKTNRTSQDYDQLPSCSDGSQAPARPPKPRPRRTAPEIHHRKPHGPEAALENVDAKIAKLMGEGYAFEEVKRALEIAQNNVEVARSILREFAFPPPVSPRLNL
- PROTOCOL SUMMARY: Jurkat HiBit-IL2 assay (c-CBL KO), reporter cell line expressing CBL-B only
- Type: cell-based
- RUN PARAMETERS: C-CBL KO (expressing CBL-B only), geometric mean, Table 16b (further repetition), read-out: C-CBL KO EC50 (nM) GMean
Answer each item with its documented EC50.
# output: bare number, implied unit nM

Return EC50 for the following compound: C[C@H](c1nc(C(F)(F)F)cc2c(-c3cccc([C@H](c4nncn4C)C4CCC4)c3)n[nH]c12)N1CC[C@H]1CO (single isomer, unassigned) 468

Return EC50 for the following compound: CCC(CC)(CO)N[C@@H](C)c1nc(C(F)(F)F)cc2c(-c3cccc([C@H](c4nncn4C)C4CCC4)c3)n[nH]c12 (single isomer, unassigned) 639

Return EC50 for the following compound: C[C@H](N[C@H]1C[C@@H](F)C1)c1nc(C(F)(F)F)cc2c(-c3cccc([C@H](c4nncn4C)C4CCC4)c3)n[nH]c12 (single isomer, unassigned) 53

Return EC50 for the following compound: C[C@H](CO)N[C@@H](C)c1nc(C(F)(F)F)cc2c(-c3cccc([C@H](c4nncn4C)C4CCC4)c3)n[nH]c12 (single isomer, unassigned) 61

Return EC50 for the following compound: C[C@@H](N[C@H]1CCC(F)(F)C1)c1nc(C(F)(F)F)cc2c(-c3cccc([C@H](c4nncn4C)C4CCC4)c3)n[nH]c12 32

Return EC50 for the following compound: C[C@@H](N[C@@H]1CCC(F)(F)C1)c1nc(C(F)(F)F)cc2c(-c3cccc(C4(Cc5nncn5C)COC4)c3)n[nH]c12 (single isomer, unassigned) 19

Return EC50 for the following compound: CC(NC(=O)[C@H](C)O)c1nc(C(F)(F)F)cc2c(-c3cccc([C@H](c4nncn4C)C4CCC4)c3)n[nH]c12 (single isomer, unassigned) 108

Return EC50 for the following compound: CC[C@H](c1cccc(-c2n[nH]c3c([C@H](C)NC[C@H](C)O)nc(C(F)(F)F)cc23)c1)c1nncn1C (single isomer, unassigned) 20

Return EC50 for the following compound: CC(N[C@H](C)[C@H](C)O)c1nc(C(F)(F)F)cc2c(-c3cccc([C@H](c4nncn4C)C4CCC4)c3)n[nH]c12 (single isomer, unassigned) 67

Return EC50 for the following compound: C[C@@H](N[C@@H]1COC[C@@H]1O)c1nc(C(F)(F)F)cc2c(-c3cccc([C@H](c4nncn4C)C4CCC4)c3)n[nH]c12 (single isomer, unassigned) 84

Return EC50 for the following compound: C[C@H](N)c1nc(C(F)(F)F)cc2c(-c3cccc([C@H](c4nncn4C)C4CCC4)c3)n[nH]c12 895

Return EC50 for the following compound: C[C@H](N[C@@H]1COC[C@@H]1O)c1nc(C(F)(F)F)cc2c(-c3cccc([C@H](c4nncn4C)C4CCC4)c3)n[nH]c12 (single isomer, unassigned) 11

Return EC50 for the following compound: CC(NCC(C)(C)O)c1nc(C(F)(F)F)cc2c(-c3cccc([C@H](c4nncn4C)C4CCC4)c3)n[nH]c12 (single isomer, unassigned) [Example C117] 170

Return EC50 for the following compound: C[C@H](NC1CCC1)c1nc(C(F)(F)F)cc2c(-c3cccc([C@H](c4nncn4C)C4COC4)c3)n[nH]c12 (single isomer, unassigned) 185

Return EC50 for the following compound: C[C@@H](NC1CC[C@H]1O)c1nc(C(F)(F)F)cc2c(-c3cccc([C@H](c4nncn4C)C4CCC4)c3)n[nH]c12 (single isomer, unassigned) 56
